kon for assorted binders
Target: T1, Histidine-tagged human CD40 protein (hCD40-His) (human, UniProt P25942 21-193)
T1 construct: not shown: histidine tag
T1 sequence (P25942 21-193 limits assumed): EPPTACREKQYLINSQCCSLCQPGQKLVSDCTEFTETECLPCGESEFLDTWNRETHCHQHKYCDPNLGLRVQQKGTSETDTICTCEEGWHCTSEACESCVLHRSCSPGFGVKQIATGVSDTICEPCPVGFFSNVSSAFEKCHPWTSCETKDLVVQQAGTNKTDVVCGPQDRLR
Assay: SPR, Biacore T200; antibody on Protein A chip, hCD40-His injected; 1:1 fit
Unit M⁻¹ s⁻¹ implied. Number only.

Consider the following illustrative entries.
| binder | kon, M⁻¹ s⁻¹ |
| --- | --- |
| 4H6-H2K2-IgG4 (antibody, V domains shown, Humanized) VH: EVQLQESGPGLVKPSQTLSLTCTVSGDSVSSGYWNWIRKHPGKKLEWIGFISYSGSTYYTPSLKSRVTISRDTSKNQFSLKLSSVTAADTAVYYCARFRRYDDGVDYWGQGTLVTVSS VL: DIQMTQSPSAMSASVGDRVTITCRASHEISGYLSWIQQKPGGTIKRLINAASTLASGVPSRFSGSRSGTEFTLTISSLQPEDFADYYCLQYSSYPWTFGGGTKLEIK | 414000 |
| 7F10-H3K2-IgG4 (antibody, V domains shown, Humanized) VH: EVKLVESGGGLVQPGGSLRLSCATSGFTFSDYYMYWVRQAPEKRLEWVAYISYGGDSTFYPDTVRGRFTISRDNAKNALYLQMSRLKAEDTAVYYCARPAPSAHSYYLDYWGQGTTLTVSS VL: DIQMTQSPSSLSASVGDRVTITCRASQDISNYLNWYQQKPGGAVKLLIYYTSRLHSGLPSRFSGSGSGTDYTFTISSLQPEDIATYYCQQGKTLPFTFASGTKLEIK | 127000 |

query: Which kon value is on record for 6A7-H1K2-IgG4 (antibody, V domains shown, Humanized) VH: QVQLVQSGAEVKKPGASVKVSCKASGYTFISYYIYWVRQAPGQGLEWMGGINPRNGGTNFNEKFKSRVTLTVDTSISTAYMELSRLRSEDTAVYYCARHGNGVYWGQGTTVTVSS VL: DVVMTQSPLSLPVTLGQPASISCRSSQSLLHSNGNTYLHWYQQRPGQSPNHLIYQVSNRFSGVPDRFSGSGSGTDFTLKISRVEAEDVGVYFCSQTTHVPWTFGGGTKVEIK ?
result: 20600
